- CONDITIONS: in 2-ethoxyethanol, 298.15 K
QUANTITY: solubility (mole fraction)
Please reply with the value in numeric form only.

Challenge: Give the reported value of solubility (mole fraction) for this record: `COc1ccc(C(=O)O)c(OC)c1OC`
Response given: 0.289

---

- CONDITIONS: in n-butyl acetate, 298.15 K
QUANTITY: solubility (mole fraction)

Challenge: Give the reported value of solubility (mole fraction) for this record: `COc1ccc(C(=O)O)c(OC)c1OC`
Response given: 0.0832

---

- CONDITIONS: in water, 313.15 K
QUANTITY: solubility (mole fraction)
Please reply with the value in numeric form only.

Challenge: Give the reported value of solubility (mole fraction) for this record: `COc1ccc(C(=O)O)c(OC)c1OC`
Response given: 0.00134
